I'd be grateful if you could share measured IC50 for these entries.
assayed_system: 5-HT2A receptor (Homo sapiens)
Sequence (P28223 whole entry): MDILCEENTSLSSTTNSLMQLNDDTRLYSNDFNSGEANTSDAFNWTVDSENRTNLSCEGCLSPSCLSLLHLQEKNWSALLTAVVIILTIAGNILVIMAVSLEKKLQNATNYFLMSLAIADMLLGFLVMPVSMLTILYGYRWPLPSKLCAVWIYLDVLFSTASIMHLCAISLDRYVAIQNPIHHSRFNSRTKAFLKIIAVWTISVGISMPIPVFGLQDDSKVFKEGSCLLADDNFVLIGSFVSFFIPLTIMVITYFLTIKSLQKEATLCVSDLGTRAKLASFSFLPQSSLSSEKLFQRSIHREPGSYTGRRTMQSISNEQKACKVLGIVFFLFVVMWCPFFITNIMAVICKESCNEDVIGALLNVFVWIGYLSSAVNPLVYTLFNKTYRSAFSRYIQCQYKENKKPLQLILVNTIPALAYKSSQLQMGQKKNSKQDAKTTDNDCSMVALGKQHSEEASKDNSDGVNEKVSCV
experiment_summary: Serotonin and dopamine receptor binding: 5-HT2A
Field format: number, assumed nM, no unit text.

Lab note: need IC50 for CN1CCc2c(c3cccc4c3n2-c2ccccc2CS4)C1 [Compound 2] on 5-HT2A receptor (Homo sapiens), anyone have it?
1

I'm curious: which IC50 was measured for CN1CCc2c(c3cccc4c3n2-c2ccccc2CO4)C1 [Compound 9] tested on 5-HT2A receptor (Homo sapiens)?
8

Requested read-out IC50, target or system 5-HT2A receptor (Homo sapiens), entry CN1CC[C@H]2[C@@H](C1)c1cccc3c1N2c1ccccc1CS3 [Compound 3]
5

Form entry - test system: 5-HT2A receptor (Homo sapiens); read-out: IC50; compound: CN1CC[C@@H]2[C@@H](C1)c1cccc3c1N2c1ccccc1CS3 [Compound 4]
3

Please tell me: IC50 of O=C(CCCN1CCc2c(c3cccc4c3n2-c2ccccc2CS4)C1)c1ccc(F)cc1 [Compound 6] , system 5-HT2A receptor (Homo sapiens)?
5

These data points were gathered from patent US8367655B2.
